Listed compounds paired with reported minimal inhibitory concentration (MIC), SA 489
# System: Staphylococcus aureus 489
# Test name: MIC, standard broth micro-dilution assay, SA 489
# Assay type: cell-based
Endpoint: minimal inhibitory concentration (MIC), SA 489

Compound	Assay result
CC1OC(OC2c3ccc(c(Cl)c3)Oc3cc4cc(c3OC3OC(CO)C(O)C(O)C3OC3CC(C)(NCc5ccc(-c6ccccc6)cc5)C(O)C(C)O3)Oc3ccc(cc3Cl)C(O)C(NC(=O)C(Cc3ccc(Cl)cc3)NC(=O)OC(C)(C)C)C(=O)NC(CC(N)=O)C(=O)NC4C(=O)NC3C(=O)NC2C(=O)NC(C(=O)O)c2cc(O)cc(O)c2-c2cc3ccc2O)CC(C)(N)C1O (stereo not drawn) [Example 28]	1
CC(C)CCC(=O)NC1C(=O)NC(CC(N)=O)C(=O)NC2C(=O)NC3C(=O)NC(C(=O)NC(C(=O)O)c4cc(O)cc(O)c4-c4cc3ccc4O)C(OC3CC(C)(N)C(O)C(C)O3)c3ccc(c(Cl)c3)Oc3cc2cc(c3OC2OC(CO)C(O)C(O)C2OC2CC(C)(NCc3ccc(-c4ccc(Cl)cc4)cc3)C(O)C(C)O2)Oc2ccc(cc2Cl)C1O (stereo not drawn)	1
CC(C)CC(N)C(=O)NC1C(=O)NC(CC(N)=O)C(=O)NC2C(=O)NC3C(=O)NC(C(=O)NC(C(=O)O)c4cc(O)cc(O)c4-c4cc3ccc4O)C(OC3CC(C)(N)C(O)C(C)O3)c3ccc(c(Cl)c3)Oc3cc2cc(c3OC2OC(CO)C(O)C(O)C2OC2CC(C)(NCc3ccc(-c4ccccc4)cc3)C(O)C(C)O2)Oc2ccc(cc2Cl)C1O (stereo not drawn) [Example 13]	0.5
CC1OC(OC2C(Oc3c4cc5cc3Oc3ccc(cc3Cl)[C@@H](O)[C@@H](NC(=O)[C@H]3CCCN3C(=O)OC(C)(C)C)C(=O)N[C@@H](CC(N)=O)C(=O)N[C@H]5C(=O)N[C@H]3C(=O)NC(C(=O)N[C@H](C(=O)O)c5cc(O)cc(O)c5-c5cc3ccc5O)[C@H](OC3CC(C)(N)C(O)C(C)O3)c3ccc(c(Cl)c3)O4)OC(CO)C(O)C2O)CC(C)(N)C1O (stereo partly drawn)	2
CC(C)CC(NC(=O)OC(C)(C)C)C(=O)NC1C(=O)NC(CC(N)=O)C(=O)NC2C(=O)NC3C(=O)NC(C(=O)NC(C(=O)O)c4cc(O)cc(O)c4-c4cc3ccc4O)C(OC3CC(C)(N)C(O)C(C)O3)c3ccc(c(Cl)c3)Oc3cc2cc(c3OC2OC(CO)C(O)C(O)C2O)Oc2ccc(cc2Cl)C1O (stereo not drawn)	4
CC1OC(OC2c3ccc(c(Cl)c3)Oc3cc4cc(c3OC3OC(CO)C(O)C(O)C3OC3CC(C)(N)C(O)C(C)O3)Oc3ccc(cc3Cl)C(O)C(NC(=O)C(Cc3ccccc3)N(C)C(=O)OC(C)(C)C)C(=O)NC(CC(N)=O)C(=O)NC4C(=O)NC3C(=O)NC2C(=O)NC(C(=O)O)c2cc(O)cc(O)c2-c2cc3ccc2O)CC(C)(N)C1O (stereo not drawn)	4

====

# Tested on: Staphylococcus haemolyticus 105
# Test name: MIC, standard broth micro-dilution assay, SH 105
# Type: cell-based
minimal inhibitory concentration (MIC), SH 105 by entry:
Endpoint: minimal inhibitory concentration (MIC), SH 105

Compound	Assay result
CC(C)CC(NC(=O)OC(C)(C)C)C(=O)NC1C(=O)NC(CC(N)=O)C(=O)NC2C(=O)NC3C(=O)NC(C(=O)NC(C(=O)O)c4cc(O)cc(O)c4-c4cc3ccc4O)C(OC3CC(C)(N)C(O)C(C)O3)c3ccc(c(Cl)c3)Oc3cc2cc(c3OC2OC(CO)C(O)C(O)C2OC2CC(C)(NCc3ccc(-c4ccccc4)cc3)C(O)C(C)O2)Oc2ccc(cc2Cl)C1O (stereo not drawn) [Example 11]	0.5
CC(C)CC(N)C(=O)NC1C(=O)NC(CC(N)=O)C(=O)NC2C(=O)NC3C(=O)NC(C(=O)NC(C(=O)O)c4cc(O)cc(O)c4-c4cc3ccc4O)C(OC3CC(C)(N)C(O)C(C)O3)c3ccc(c(Cl)c3)Oc3cc2cc(c3OC2OC(CO)C(O)C(O)C2OC2CC(C)(NCc3ccc(-c4ccccc4)cc3)C(O)C(C)O2)Oc2ccc(cc2Cl)C1O (stereo not drawn) [Example 27]	0.125
CNC(C(=O)NC1C(=O)NC(CC(N)=O)C(=O)NC2C(=O)NC3C(=O)NC(C(=O)NC(C(=O)O)c4cc(O)cc(O)c4-c4cc3ccc4O)C(OC3CC(C)(N)C(O)C(C)O3)c3ccc(c(Cl)c3)Oc3cc2cc(c3OC2OC(CO)C(O)C(O)C2OC2CC(C)(N)C(O)C(C)O2)Oc2ccc(cc2Cl)C1O)C(C)C (stereo not drawn) [Example 42]	0.5

====

# System: Staphylococcus aureus 447
# Test name: MIC, standard broth micro-dilution assay, SA 447
# Format: cell-based
Endpoint: minimal inhibitory concentration (MIC), SA 447

Molecule	Assay result
CCCCCCNC(CC(C)C)C(=O)NC1C(=O)NC(CC(N)=O)C(=O)NC2C(=O)NC3C(=O)NC(C(=O)NC(C(=O)O)c4cc(O)cc(O)c4-c4cc3ccc4O)C(OC3CC(C)(N)C(O)C(C)O3)c3ccc(c(Cl)c3)Oc3cc2cc(c3OC2OC(CO)C(O)C(O)C2OC2CC(C)(N)C(O)C(C)O2)Oc2ccc(cc2Cl)C1O (stereo not drawn) [Example 39]	0.5
CC1OC(OC2c3ccc(c(Cl)c3)Oc3cc4cc(c3OC3OC(CO)C(O)C(O)C3OC3CC(C)(NCc5ccc(-c6ccccc6)cc5)C(O)C(C)O3)Oc3ccc(cc3Cl)C(O)C(NC(=O)C(Cc3ccc(Cl)cc3)NC(=O)OC(C)(C)C)C(=O)NC(CC(N)=O)C(=O)NC4C(=O)NC3C(=O)NC2C(=O)NC(C(=O)O)c2cc(O)cc(O)c2-c2cc3ccc2O)CC(C)(N)C1O (stereo not drawn) [Example 21]	0.5
CC1OC(OC2c3ccc(c(Cl)c3)Oc3cc4cc(c3OC3OC(CO)C(O)C(O)C3OC3CC(C)(NCc5ccc(-c6ccccc6)cc5)C(O)C(C)O3)Oc3ccc(cc3Cl)C(O)C(NC(=O)C(N)Cc3ccc(Cl)cc3)C(=O)NC(CC(N)=O)C(=O)NC4C(=O)NC3C(=O)NC2C(=O)NC(C(=O)O)c2cc(O)cc(O)c2-c2cc3ccc2O)CC(C)(N)C1O (stereo not drawn) [Example 22]	1
CSCCC(NC(=O)OC(C)(C)C)C(=O)NC1C(=O)NC(CC(N)=O)C(=O)NC2C(=O)NC3C(=O)NC(C(=O)NC(C(=O)O)c4cc(O)cc(O)c4-c4cc3ccc4O)C(OC3CC(C)(N)C(O)C(C)O3)c3ccc(c(Cl)c3)Oc3cc2cc(c3OC2OC(CO)C(O)C(O)C2OC2CC(C)(NCc3ccc(-c4ccccc4)cc3)C(O)C(C)O2)Oc2ccc(cc2Cl)C1O (stereo not drawn) [Example 15]	1
CC1OC(OC2c3ccc(c(Cl)c3)Oc3cc4cc(c3OC3OC(CO)C(O)C(O)C3OC3CC(C)(NCc5ccc(-c6ccccc6)cc5)C(O)C(C)O3)Oc3ccc(cc3Cl)C(O)C(NC(=O)C(N)CCCCN)C(=O)NC(CC(N)=O)C(=O)NC4C(=O)NC3C(=O)NC2C(=O)NC(C(=O)O)c2cc(O)cc(O)c2-c2cc3ccc2O)CC(C)(N)C1O (stereo not drawn) [Example 23]	1
CNC(C(=O)NC1C(=O)NC(CC(N)=O)C(=O)NC2C(=O)NC3C(=O)NC(C(=O)NC(C(=O)O)c4cc(O)cc(O)c4-c4cc3ccc4O)C(OC3CC(C)(N)C(O)C(C)O3)c3ccc(c(Cl)c3)Oc3cc2cc(c3OC2OC(CO)C(O)C(O)C2OC2CC(C)(N)C(O)C(C)O2)Oc2ccc(cc2Cl)C1O)C(C)C (stereo not drawn) [Example 42]	0.5

====

# Test system: Staphylococcus aureus 489
# Test name: MIC, standard broth micro-dilution assay, SA 489
# Type: cell-based
# binarize minimal inhibitory concentration (MIC), SA 489: threshold 0.2 inclusive, high side class 1, low side class 0

Molecule	Label
CC1OC(OC2c3ccc(c(Cl)c3)Oc3cc4cc(c3OC3OC(CO)C(O)C(O)C3OC3CC(C)(NCc5ccc(-c6ccccc6)cc5)C(O)C(C)O3)Oc3ccc(cc3Cl)C(O)C(NC(=O)C3CCCN3C(=O)OC(C)(C)C)C(=O)NC(CC(N)=O)C(=O)NC4C(=O)NC3C(=O)NC2C(=O)NC(C(=O)O)c2cc(O)cc(O)c2-c2cc3ccc2O)CC(C)(N)C1O (stereo not drawn) [Example 26]	class 1
CC(C)CC(N)C(=O)NC1C(=O)NC(CC(N)=O)C(=O)NC2C(=O)NC3C(=O)NC(C(=O)NC(C(=O)O)c4cc(O)cc(O)c4-c4cc3ccc4O)C(OC3CC(C)(N)C(O)C(C)O3)c3ccc(c(Cl)c3)Oc3cc2cc(c3OC2OC(CO)C(O)C(O)C2O)Oc2ccc(cc2Cl)C1O (stereo not drawn)	class 1
CC(C)C[C@@H](N)C(=O)N[C@H]1C(=O)N[C@@H](CC(N)=O)C(=O)N[C@H]2C(=O)N[C@H]3C(=O)NC(C(=O)N[C@H](C(=O)O)c4cc(O)cc(O)c4-c4cc3ccc4O)[C@H](OC3CC(C)(N)C(O)C(C)O3)c3ccc(c(Cl)c3)Oc3cc2cc(c3OC2OC(CO)C(O)C(O)C2OC2CC(C)(N)C(O)C(C)O2)Oc2ccc(cc2Cl)[C@H]1O (stereo partly drawn)	class 0
CC(C)CCC(=O)NC1C(=O)NC(CC(N)=O)C(=O)NC2C(=O)NC3C(=O)NC(C(=O)NC(C(=O)O)c4cc(O)cc(O)c4-c4cc3ccc4O)C(OC3CC(C)(N)C(O)C(C)O3)c3ccc(c(Cl)c3)Oc3cc2cc(c3OC2OC(CO)C(O)C(O)C2OC2CC(C)(NCc3ccc(-c4ccccc4)cc3)C(O)C(C)O2)Oc2ccc(cc2Cl)C1O (stereo not drawn)	class 0
CC(C)C(C(=O)NC1C(=O)NC(CC(N)=O)C(=O)NC2C(=O)NC3C(=O)NC(C(=O)NC(C(=O)O)c4cc(O)cc(O)c4-c4cc3ccc4O)C(OC3CC(C)(N)C(O)C(C)O3)c3ccc(c(Cl)c3)Oc3cc2cc(c3OC2OC(CO)C(O)C(O)C2OC2CC(C)(N)C(O)C(C)O2)Oc2ccc(cc2Cl)C1O)N(C)C(=O)OC(C)(C)C (stereo not drawn)	class 1

Value source: patent US6670446B1
